The values you see were collected from ChEMBL document CHEMBL1155794.

Method: Cytotoxicity against human MT4 cells
Type: cell-based
Measurement Name: log10(CC50) (log10 of the value in µM)
Scale type: logarithmic (base 10). Underlying CC50 unit: µM.

Reference set, count: 10
>>> df
                               given_smiles   val
0  CC(=O)n1c(=O)n(Cc2cc(F)cc(F)c2)c2cc(Cl)ccc21  1.61
1  CC(=O)n1c(=O)n(Cc2c(F)cccc2F)c2cc(Cl)ccc21  2.01
2      Cc1ccc2[nH]c(=O)n(Cc3c(F)cccc3F)c2c1  2.37
3    Cc1ccc2[nH]c(=O)n(Cc3cc(F)cc(F)c3)c2c1  1.86
4     Fc1cccc(F)c1Cn1c(=S)[nH]c2ccc(Cl)cc21  0.77
5  Cc1ccc2[nH]c(=O)n(S(=O)(=O)c3c(F)cccc3F)c2c1  0.35
6  CC(=O)n1c(=O)n(Cc2cc(C)cc(C)c2)c2cc(Cl)ccc21  0.86
7    O=c1[nH]c2cc(F)c(Cl)cc2n1Cc1c(F)cccc1F  2.43
8  Cc1ccc2[nH]c(=O)n(S(=O)(=O)c3cc(F)cc(F)c3)c2c1  1.37
9  Cc1cc(C)cc(S(=O)(=O)n2c(=O)[nH]c3cc(F)c(Cl)cc32)c1  2.15

So what does the record say about log10(CC50) for Cc1cc(C)cc(Cn2c(=S)[nH]c3ccc(Cl)cc32)c1 ?
-0.52

Entry Cc1cc(C)cc(Cn2c(=O)[nH]c3ccc(C)cc32)c1 has what log10(CC50)?
-0.07

Sample Cc1cc(C)cc(Cn2c(=O)[nH]c3ccc(C(F)(F)F)cc32)c1 — what was its log10(CC50)?
1.57

So what does the record say about log10(CC50) for O=c1[nH]c2ccc(Cl)cc2n1S(=O)(=O)c1cc(F)cc(F)c1 ?
2.31

Would you mind telling me what log10(CC50) value was observed for Fc1cc(F)cc(Cn2c(=S)[nH]c3ccc(Cl)cc32)c1 ?
0.08

Look up log10(CC50): O=c1[nH]c2ccc(Cl)cc2n1S(=O)(=O)c1c(F)cccc1F
2.29

====

Target Under Test: Human immunodeficiency virus type 1 reverse transcriptase (Human immunodeficiency virus 1, UniProt Q72547)
Measurement Name: IC50 (nM)
Answer with a number only, understood to be in nM.

>>> df
                               given_smiles    val
0  CC(=O)n1c(=O)n(Cc2cc(F)cc(F)c2)c2cc(Cl)ccc21  38500
1    O=c1[nH]c2cc(F)c(Cl)cc2n1Cc1c(F)cccc1F    140
2    Cc1cc(C)cc(Cn2c(=O)[nH]c3ccc(C)cc32)c1  76900
3  Cc1cc(C)cc(S(=O)(=O)n2c(=O)[nH]c3ccc(C)cc32)c1    100
4  Cc1cc(C)cc(S(=O)(=O)n2c(=O)[nH]c3cc(F)c(Cl)cc32)c1    158
5  O=c1[nH]c2ccc(C(F)(F)F)cc2n1Cc1c(F)cccc1F     17

So what's the measured IC50 for this one? O=c1[nH]c2ccc(Cl)cc2n1S(=O)(=O)c1c(F)cccc1F
30000

# query: IC50 of entry Cc1ccc2[nH]c(=O)n(S(=O)(=O)c3c(F)cccc3F)c2c1
1300

Query: IC50; subject: O=c1[nH]c2ccc(Cl)cc2n1S(=O)(=O)c1cc(F)cc(F)c1
100

Dear colleague, I am looking for the recorded IC50 of the following molecule: Fc1cc(F)cc(Cn2c(=S)[nH]c3ccc(Cl)cc32)c1
160

I have this molecule here, O=c1[nH]c2ccc(Cl)cc2n1Cc1cc(F)cc(F)c1 , and I need its recorded IC50.
100

Which IC50 is listed for Cc1cc(C)cc(Cn2c(=O)[nH]c3ccc(C(F)(F)F)cc32)c1 ?
280

Give its IC50 value. Item: Cc1cc(C)cc(Cn2c(=S)[nH]c3ccc(Cl)cc32)c1
46

Need IC50, item O=c1[nH]c2cc(F)c(Cl)cc2n1Cc1cc(F)cc(F)c1
3

Entry under review: Cc1ccc2[nH]c(=O)n(S(=O)(=O)c3cc(F)cc(F)c3)c2c1 . Reported IC50?
200

====

Method: Selectivity index, ratio of CC50 for human MT4 cells to EC50 for HIV1 3B
Type: toxicity, cell-based
Particulars: read-out: Ratio CC50/EC50
Measurement Name: selectivity ratio

                              given_smiles  val
0  Fc1cc(F)cc(Cn2c(=S)[nH]c3ccc(Cl)cc32)c1    2

I'd like to know its selectivity ratio. The compound in question is Cc1ccc2[nH]c(=O)n(S(=O)(=O)c3c(F)cccc3F)c2c1
11

I have this compound here, O=c1[nH]c2ccc(Cl)cc2n1Cc1c(F)cccc1F , and I need its recorded selectivity ratio.
> 1890

Fill in the blank: the reported selectivity ratio of Fc1cccc(F)c1Cn1c(=S)[nH]c2ccc(Cl)cc21 is ____.
8

Would you mind telling me what selectivity ratio value was observed for CC(=O)n1c(=O)n(Cc2c(F)cccc2F)c2cc(Cl)ccc21 ?
190

====

Method: Selectivity index, ratio of CC50 for human MT4 cells to EC50 for HIV1 3B
Type: toxicity, cell-based
Particulars: read-out: Ratio CC50/EC50
Decision: selectivity ratio beneath 300 gives 1; selectivity ratio meeting or exceeding 300 gives -1.

Item Cc1ccc2[nH]c(=O)n(Cc3cc(F)cc(F)c3)c2c1 : selectivity ratio beneath 300, strictly?
1

====

Method: Selectivity index, ratio of CC50 for human MT4 cells to EC50 for HIV1 3B
Format: toxicity, cell-based
Particulars: read-out: Ratio CC50/EC50
Measurement Name: selectivity ratio
Answer with a bare number; do not write a unit.

>>> df
                               given_smiles   val
0  O=c1[nH]c2ccc(Cl)cc2n1S(=O)(=O)c1cc(F)cc(F)c1  2930
1  CC(=O)n1c(=O)n(Cc2cc(C)cc(C)c2)c2cc(Cl)ccc21   614
2   Cc1cc(C)cc(Cn2c(=S)[nH]c3ccc(Cl)cc32)c1     4

Now examine the next entry.
# input molecule: CC(=O)n1c(=O)n(Cc2cc(F)cc(F)c2)c2cc(Cl)ccc21 ; wanted: its selectivity ratio
24

====

Entries and their CC50 values follow.
Method: Cytotoxicity against human MT4 cells
Type: cell-based

Here is how some compounds turned out for CC50.
                               given_smiles       val
0  Cc1cc(C)cc(Cn2c(=O)[nH]c3cc(F)c(Cl)cc32)c1  > 410 µM
1       O=c1[nH]c2ccc(Cl)cc2n1Cc1c(F)cccc1F  > 424 µM
2  O=c1[nH]c2ccc(C(F)(F)F)cc2n1Cc1c(F)cccc1F  > 424 µM

GET /values?readout=CC50&item= O=c1[nH]c2cc(F)c(Cl)cc2n1Cc1cc(F)cc(F)c1
> 400 µM

Consider the compound Cc1cc(C)cc(S(=O)(=O)n2c(=O)[nH]c3ccc(C)cc32)c1 and give its measured CC50.
> 308 µM

# CC50 lookup, item O=c1[nH]c2ccc(Cl)cc2n1Cc1cc(F)cc(F)c1
> 424 µM

Which value of CC50 has been reported for O=C1Nc2ccc(Cl)cc2[C@@](C#CC2CC2)(C(F)(F)F)O1 in the records?
> 6 µM

Name the recorded CC50 for Cc1ccnc2c1NC(=O)c1cccnc1N2C1CC1 .
> 15 µM

====

Target Under Test: Human immunodeficiency virus type 1 reverse transcriptase (Human immunodeficiency virus 1, UniProt Q72547)
pIC50: −log10 of the molar value.
Measurement Name: pIC50

Reference set (4 entries):
>>> print(df.to_string())
                               given_smiles  measurement_name     val
0  CC(=O)n1c(=O)n(Cc2cc(C)cc(C)c2)c2cc(Cl)ccc21             pIC50  < 4.00
1  Cc1cc(C)cc(Cn2c(=O)[nH]c3cc(F)c(Cl)cc32)c1             pIC50  < 4.00
2      Cc1ccc2[nH]c(=O)n(Cc3c(F)cccc3F)c2c1             pIC50  < 4.00
3    Cc1ccc2[nH]c(=O)n(Cc3cc(F)cc(F)c3)c2c1             pIC50  < 3.40

Item CC(=O)n1c(=O)n(Cc2c(F)cccc2F)c2cc(Cl)ccc21 has what recorded pIC50?
< 4.00

====

Method: Selectivity index, ratio of CC50 for human MT4 cells to EC50 for HIV1 3B
Type: toxicity, cell-based
Particulars: read-out: Ratio CC50/EC50
Measurement Name: selectivity ratio

// below: answered compounds
                               given_smiles   measurement_name      val
0  Cc1cc(C)cc(Cn2c(=O)[nH]c3cc(F)c(Cl)cc32)c1  selectivity ratio    > 438
1   Cc1cc(C)cc(Cn2c(=O)[nH]c3ccc(Cl)cc32)c1  selectivity ratio      281
2  Cc1cc(C)cc(S(=O)(=O)n2c(=O)[nH]c3ccc(Cl)cc32)c1  selectivity ratio    17800
3  Cc1cc(C)cc(S(=O)(=O)n2c(=O)[nH]c3ccc(C)cc32)c1  selectivity ratio  > 48900
4  Cc1cc(C)cc(Cn2c(=O)[nH]c3ccc(C(F)(F)F)cc32)c1  selectivity ratio       88

Turning now to a further compound:
Would you mind telling me what selectivity ratio value was observed for Cc1ccc2[nH]c(=O)n(Cc3c(F)cccc3F)c2c1 ?
13
